target: AChE (Homo sapiens, UniProt P22303); assay: AChE inhibition, modified Ellman approach; assay type: biochemical; details: 10^-4 M
Sequence (P22303 32-614): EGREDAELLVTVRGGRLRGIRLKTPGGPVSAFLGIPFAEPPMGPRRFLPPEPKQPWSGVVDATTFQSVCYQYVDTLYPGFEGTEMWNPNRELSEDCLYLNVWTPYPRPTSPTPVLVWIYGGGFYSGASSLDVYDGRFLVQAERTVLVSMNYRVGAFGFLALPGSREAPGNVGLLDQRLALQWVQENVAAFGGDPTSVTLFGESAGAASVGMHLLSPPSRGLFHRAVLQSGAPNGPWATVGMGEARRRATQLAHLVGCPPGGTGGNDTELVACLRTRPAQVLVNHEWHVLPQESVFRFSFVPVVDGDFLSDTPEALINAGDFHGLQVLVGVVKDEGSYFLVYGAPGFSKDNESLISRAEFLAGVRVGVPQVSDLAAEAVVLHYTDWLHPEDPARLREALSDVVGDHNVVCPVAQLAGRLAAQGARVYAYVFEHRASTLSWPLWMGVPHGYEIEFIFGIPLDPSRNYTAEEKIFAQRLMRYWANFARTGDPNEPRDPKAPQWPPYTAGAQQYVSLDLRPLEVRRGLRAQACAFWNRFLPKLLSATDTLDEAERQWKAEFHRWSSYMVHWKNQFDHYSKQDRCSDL
Please provide measured inhibition at 100 µM for the entries that follow.
Please respond with the number in % and leave the unit unwritten.

So what does the record say about inhibition at 100 µM for "COc1ccc(N2CCN(C(=S)SCc3c(C(=O)c4ccccc4)oc4ccccc34)CC2)cc1" ?
43.9

Please answer likewise for "O=C(c1ccccc1)c1oc2ccccc2c1CSC(=S)N1CCOCC1"
41.3

And "O=C(c1ccccc1)c1oc2ccccc2c1CSC(=S)N1CCCCC1" ?
40.7

Entry to check: "O=C(c1ccccc1)c1oc2ccccc2c1CSC(=S)N1CCN(c2ncccn2)CC1"
43.6

How about "O=C(c1ccccc1)c1oc2ccccc2c1CSC(=S)N1CCC(Cc2ccccc2)CC1" ?
88.6

And what about the compound "O=C(c1ccccc1)c1oc2ccccc2c1CSC(=S)N1CCN(c2ccc(Cl)cc2)CC1" ?
46.8

Same for CC1CCCN(C(=S)SCc2c(C(=O)c3ccccc3)oc3ccccc23)C1 (stereo not drawn)
43

Thanks! And "CC1CCN(C(=S)SCc2c(C(=O)c3ccccc3)oc3ccccc23)CC1" ?
40.7

Thanks! And "O=C(c1ccccc1)c1oc2ccccc2c1CSC(=S)N1CCN(CCO)CC1" ?
89.4

// repeat for "O=C(c1ccccc1)c1oc2ccccc2c1CSC(=S)N1CCN(C(=O)c2ccco2)CC1" and report
84.2

Now the same for CC1CCCCN1C(=S)SCc1c(C(=O)c2ccccc2)oc2ccccc12 (stereo not drawn)
43.4

Do the same for "O=C(c1ccccc1)c1oc2ccccc2c1CSC(=S)N1CCN(c2ccc([N+](=O)[O-])cc2)CC1" please
41.6

Param item: "O=C(c1ccccc1)c1oc2ccccc2c1CSC(=S)N1CCN(c2ccc(F)cc2)CC1"
83.6

// same read-out, input: "CN(C)CCCN1CCN(C(=S)SCc2c(C(=O)c3ccccc3)oc3ccccc23)CC1"
39.1

Next up: "O=C(c1ccccc1)c1oc2ccccc2c1CSC(=S)N1CCN(c2ccccc2)CC1"
41

###

biological target: human BChE (Homo sapiens); assay: biochemical; settings: read-out: BChE % Inhibition
Sequence (P06276 29-602): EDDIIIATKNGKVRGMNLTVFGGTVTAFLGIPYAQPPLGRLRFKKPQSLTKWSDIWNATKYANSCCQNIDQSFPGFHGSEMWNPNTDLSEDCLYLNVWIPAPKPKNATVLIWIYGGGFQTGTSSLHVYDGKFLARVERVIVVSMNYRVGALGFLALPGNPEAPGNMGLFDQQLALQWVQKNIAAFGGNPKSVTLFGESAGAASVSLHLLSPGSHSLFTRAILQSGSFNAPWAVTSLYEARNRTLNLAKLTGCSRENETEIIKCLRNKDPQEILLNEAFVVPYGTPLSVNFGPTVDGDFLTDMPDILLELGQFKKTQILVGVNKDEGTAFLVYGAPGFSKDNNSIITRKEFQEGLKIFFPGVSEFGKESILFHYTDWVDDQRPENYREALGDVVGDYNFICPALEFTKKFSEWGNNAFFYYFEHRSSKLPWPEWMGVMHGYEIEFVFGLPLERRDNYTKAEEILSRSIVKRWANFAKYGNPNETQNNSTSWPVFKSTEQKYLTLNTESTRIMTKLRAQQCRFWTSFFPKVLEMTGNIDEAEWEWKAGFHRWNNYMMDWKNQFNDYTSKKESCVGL
Classify by measured inhibition at 1000 µM: label 1 if it is equal to or exceeds 30%, label 0 if it is smaller.

hey, is inhibition at 1000 µM for this one >= 30%? "O=C(c1ccccc1)c1oc2ccccc2c1CSC(=S)N1CCN(C(=O)c2ccco2)CC1"
label 1

Please give the result for "O=C(c1ccccc1)c1oc2ccccc2c1CSC(=S)N1CCN(c2ncccn2)CC1" too.
label 0

Then what about the compound CC1CCCCN1C(=S)SCc1c(C(=O)c2ccccc2)oc2ccccc12 (centres unmarked) ?
label 1

Also "CC1CCN(C(=S)SCc2c(C(=O)c3ccccc3)oc3ccccc23)CC1" , if possible.
label 0

###

// values below are pIC50; system is Human β-Secretase (BACE-1) (Homo sapiens)
Sequence (P56817 46-501): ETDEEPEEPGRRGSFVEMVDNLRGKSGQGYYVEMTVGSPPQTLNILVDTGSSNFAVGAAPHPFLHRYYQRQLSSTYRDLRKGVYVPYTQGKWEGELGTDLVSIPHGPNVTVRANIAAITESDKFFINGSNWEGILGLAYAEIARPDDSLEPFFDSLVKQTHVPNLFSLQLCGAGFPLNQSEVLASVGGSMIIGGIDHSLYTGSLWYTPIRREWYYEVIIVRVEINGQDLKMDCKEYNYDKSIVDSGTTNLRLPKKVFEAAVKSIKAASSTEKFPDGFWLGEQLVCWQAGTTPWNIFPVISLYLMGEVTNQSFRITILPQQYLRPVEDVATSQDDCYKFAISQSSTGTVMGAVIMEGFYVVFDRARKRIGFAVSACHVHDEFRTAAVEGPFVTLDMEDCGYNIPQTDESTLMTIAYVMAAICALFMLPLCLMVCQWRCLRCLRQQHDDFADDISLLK
Schema: pIC50 number; meaning minus log10 of the concentration expressed in molar units.

For the compound shown here, "O=C(c1ccccc1)c1oc2ccccc2c1CSC(=S)N1CCN(CCO)CC1" , give the reported pIC50.
7.08

Now give it for "O=C(c1ccccc1)c1oc2ccccc2c1CSC(=S)N1CCN(C(=O)c2ccco2)CC1" too.
6.81

Next compound up: "O=C(c1ccccc1)c1oc2ccccc2c1CSC(=S)N1CCC(Cc2ccccc2)CC1"
6.87

###

target: UniProtKB P22303; assay: AChE inhibition, modified Ellman approach; type: biochemical; conditions: 10^-9 M
observable: inhibition at 0.001 µM
Please don't drop the unit; write it after the number.

So what inhibition at 0.001 µM did "O=C(c1ccccc1)c1oc2ccccc2c1CSC(=S)N1CCN(c2ccc(F)cc2)CC1" get with UniProtKB P22303?
20.8%

Ok, now "O=C(c1ccccc1)c1oc2ccccc2c1CSC(=S)N1CCN(C(=O)c2ccco2)CC1"
23%

Also need "O=C(c1ccccc1)c1oc2ccccc2c1CSC(=S)N1CCC(Cc2ccccc2)CC1" , thanks.
21.5%

Try this compound too: "O=C(c1ccccc1)c1oc2ccccc2c1CSC(=S)N1CCN(CCO)CC1"
26.6%

###

molecular target: AChE (Homo sapiens); experiment: AChE inhibition, modified Ellman approach; type: biochemical; conditions: 10^-3 M
Provide the reported inhibition at 1000 µM of each item.
Please answer using a numeric value trailed by its unit.

# input molecule: CN(C)CCCN1CCN(C(=S)SCc2c(C(=O)c3ccccc3)oc3ccccc23)CC1 [4g] ; wanted: its inhibition at 1000 µM
69%

CC1CCCCN1C(=S)SCc1c(C(=O)c2ccccc2)oc2ccccc12 (centres unmarked) [4b] ?
58.4%

And for O=C(c1ccccc1)c1oc2ccccc2c1CSC(=S)N1CCOCC1 [4f] ?
70.8%

# repeat for CC1CCN(C(=S)SCc2c(C(=O)c3ccccc3)oc3ccccc23)CC1 [4d]
63.8%

And the next one, CC1CCCN(C(=S)SCc2c(C(=O)c3ccccc3)oc3ccccc23)C1 (centres unmarked) [4c] ?
71.7%

###

target: AChE (Homo sapiens); assay: AChE inhibition, modified Ellman approach; assay type: biochemical; details: 10^-5 M
observable: inhibition at 10 µM (%)
Give just the number in %; leave the unit off.

I would be grateful if you could share the reported inhibition at 10 µM for "O=C(c1ccccc1)c1oc2ccccc2c1CSC(=S)N1CCC(Cc2ccccc2)CC1" .
80.2

Next molecule: "O=C(c1ccccc1)c1oc2ccccc2c1CSC(=S)N1CCN(CCO)CC1"
80.2

// next record "O=C(c1ccccc1)c1oc2ccccc2c1CSC(=S)N1CCN(c2ccc(F)cc2)CC1"
75

Now the molecule "O=C(c1ccccc1)c1oc2ccccc2c1CSC(=S)N1CCN(C(=O)c2ccco2)CC1"
80.3

###

I'd appreciate it if you could supply inhibition at 100 µM values for the items below.
biological target: human BChE (Homo sapiens); test: biochemical; conditions: read-out: BChE % Inhibition;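 note: inhibition of BChE determined with an adapted Ellman method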
Kindly answer with a numeric value in %, unit omitted.

Any idea what its inhibition at 100 µM is? The compound is CC1CCCN(C(=S)SCc2c(C(=O)c3ccccc3)oc3ccccc23)C1 (stereo not drawn)
22.1

Another: "O=C(c1ccccc1)c1oc2ccccc2c1CSC(=S)N1CCN(CCO)CC1"
31.1

Try the compound "CN(C)CCCN1CCN(C(=S)SCc2c(C(=O)c3ccccc3)oc3ccccc23)CC1"
21.7

Likewise for "O=C(c1ccccc1)c1oc2ccccc2c1CSC(=S)N1CCCCC1" ?
25.8

Query "O=C(c1ccccc1)c1oc2ccccc2c1CSC(=S)N1CCN(c2ccc(Cl)cc2)CC1" next
20.1

Also, "CC1CCN(C(=S)SCc2c(C(=O)c3ccccc3)oc3ccccc23)CC1" please.
24.4

// repeat for "O=C(c1ccccc1)c1oc2ccccc2c1CSC(=S)N1CCN(c2ccc(F)cc2)CC1" and report
30.3

How about "COc1ccc(N2CCN(C(=S)SCc3c(C(=O)c4ccccc4)oc4ccccc34)CC2)cc1" ?
21.4

Again, but for "O=C(c1ccccc1)c1oc2ccccc2c1CSC(=S)N1CCOCC1"
20.7

Same question for "O=C(c1ccccc1)c1oc2ccccc2c1CSC(=S)N1CCN(C(=O)c2ccco2)CC1" please.
28.3

Can you handle "O=C(c1ccccc1)c1oc2ccccc2c1CSC(=S)N1CCN(c2ncccn2)CC1" next?
20.8

What would you report for "O=C(c1ccccc1)c1oc2ccccc2c1CSC(=S)N1CCN(c2ccccc2)CC1" ?
24.9

Also need CC1CCCCN1C(=S)SCc1c(C(=O)c2ccccc2)oc2ccccc12 (stereo not drawn) , thanks.
27.3

Thanks! And "O=C(c1ccccc1)c1oc2ccccc2c1CSC(=S)N1CCN(c2ccc([N+](=O)[O-])cc2)CC1" ?
23.6

What about this compound? "O=C(c1ccccc1)c1oc2ccccc2c1CSC(=S)N1CCC(Cc2ccccc2)CC1"
29

###

target: AChE (Homo sapiens); experiment: AChE inhibition, modified Ellman approach; format: biochemical; settings: 10^-7 M
Hi there, I'd appreciate the recorded inhibition at 0.1 µM for every entry that follows.
State the value, then name its unit.

Return reported inhibition at 0.1 µM; argument: "O=C(c1ccccc1)c1oc2ccccc2c1CSC(=S)N1CCN(c2ccc(F)cc2)CC1"
58.3%

Repeat with "O=C(c1ccccc1)c1oc2ccccc2c1CSC(=S)N1CCN(C(=O)c2ccco2)CC1"
60.3%

Would you kindly repeat that for "O=C(c1ccccc1)c1oc2ccccc2c1CSC(=S)N1CCC(Cc2ccccc2)CC1" ?
61.6%

Cool, now "O=C(c1ccccc1)c1oc2ccccc2c1CSC(=S)N1CCN(CCO)CC1"
70.4%

###

Assignment: determine reported inhibition at 1000 µM for the given molecules.
target: AChE (Homo sapiens, UniProt P22303); assay: AChE inhibition, modified Ellman approach; type: biochemical; conditions: 10^-3 M
Response body: numeric value in %, unit text excluded.

What value of inhibition at 1000 µM has been recorded for this entry: "O=C(c1ccccc1)c1oc2ccccc2c1CSC(=S)N1CCN(c2ccc(Cl)cc2)CC1"
76.7

Queued: "COc1ccc(N2CCN(C(=S)SCc3c(C(=O)c4ccccc4)oc4ccccc34)CC2)cc1"
72.3

Again, but for "O=C(c1ccccc1)c1oc2ccccc2c1CSC(=S)N1CCN(C(=O)c2ccco2)CC1"
90.7

Now this one: "O=C(c1ccccc1)c1oc2ccccc2c1CSC(=S)N1CCN(c2ccc([N+](=O)[O-])cc2)CC1"
69

Next up: "O=C(c1ccccc1)c1oc2ccccc2c1CSC(=S)N1CCCCC1"
65.2

Please answer likewise for "O=C(c1ccccc1)c1oc2ccccc2c1CSC(=S)N1CCN(CCO)CC1"
94.3

Now try "O=C(c1ccccc1)c1oc2ccccc2c1CSC(=S)N1CCN(c2ccc(F)cc2)CC1" .
91.2

Another molecule: "O=C(c1ccccc1)c1oc2ccccc2c1CSC(=S)N1CCC(Cc2ccccc2)CC1"
92.6

Also, "O=C(c1ccccc1)c1oc2ccccc2c1CSC(=S)N1CCN(c2ccccc2)CC1" please.
75.6

Item: "O=C(c1ccccc1)c1oc2ccccc2c1CSC(=S)N1CCN(c2ncccn2)CC1"
72.8
